System: ATP;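 also: ATP exposure 15 min at 22 °C before imaging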
Experiment: switch fluorescence ratio, 500 uM ATP over buffer (Cy3 cluster intensity, sum of 5 cycles each) (fold (ratio)); higher = stronger signal-on switching upon ATP binding; sequences stand for … in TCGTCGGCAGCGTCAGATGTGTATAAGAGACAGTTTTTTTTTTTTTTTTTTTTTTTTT…TC
Details: aptamer strand: ATP DNA aptamer (quencher-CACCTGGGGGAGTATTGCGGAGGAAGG + anchor), 100 nM annealed; ATP concentration: 500 uM
Label met when switch fluorescence ratio >= 1; otherwise not met.

Below are worked cases with known answers.
| ORDERED RESIDUES | LABEL CLASS |
| --- | --- |
| TTTACGTGAC | met |
| AAGGGGTTT | met |
| GTCAGATGGG | not met |
| AAGTTATTGT | met |
| GACTGCTACT | met |

Inquiry: Please tell me: is the sequence TGACATCATT at or over 1 in terms of switch fluorescence ratio?
Reply text: met

Inquiry: Please tell me: is the sequence TGGTTGGGTG at or over 1 in terms of switch fluorescence ratio?
Reply text: met

Inquiry: Please tell me: is the sequence TTTTAACGGA at or over 1 in terms of switch fluorescence ratio?
Reply text: met
